Exercise: for every item that follows, state its recorded LD50.
Experiment: Acute toxicity (LD50) in mice, per os
Conditions: mouse, in vivo, po
Answers are plain numbers, in mg/kg.

Worked examples, 6 compounds total:
compound=COc1ccccc1N1CCN(C(=O)CN2CCN(CCOC(c3ccccc3)c3ccccc3)CC2)CC1 reported_endpoint=LD50 endpoint_unit=mg/kg reported=1200
compound=CCCCOC(=O)CCN1CCN(CCOC(c2ccc(F)cc2)c2ccc(F)cc2)CC1 reported_endpoint=LD50 endpoint_unit=mg/kg reported=500
compound="O=C(O)CCCN1CCN(CCOC(c2ccccc2)c2ccc(F)cc2)CC1 (stereo not drawn)" reported_endpoint=LD50 endpoint_unit=mg/kg reported=1200
compound="O=C(CN1CCN(CCOC(c2ccccc2)c2ccccc2)CC1)N1CCN(Cc2ccc3c(c2)OCO3)CC1 [Derivative 33, trimaleate]" reported_endpoint=LD50 endpoint_unit=mg/kg reported=600
compound="O=C(O)CCN1CCN(CCOC(c2ccccc2)c2ccc(F)cc2)CC1 (stereo not drawn)" reported_endpoint=LD50 endpoint_unit=mg/kg reported=800
compound=O=C(O)CCN1CCN(CCOC(c2ccccc2)c2ccccc2)CC1 reported_endpoint=LD50 endpoint_unit=mg/kg reported=2250

Working through the 3 compounds below one at a time, give LD50 for each.
1. NC(=O)CCN1CCN(CCOC(c2ccccc2)c2ccccc2)CC1
2. CCOC(=O)CCN1CCN(CCOC(c2ccccc2)c2ccccc2)CC1
3. CCCCCCOC(=O)CCN1CCN(CCOC(c2ccc(F)cc2)c2ccc(F)cc2)CC1

Reply:
1000
2000
800
